Origin of measurements: ChEMBL document CHEMBL4765483

# Experimental system: Adenosine receptor A2b (Homo sapiens) (UniProt P29275)
# Sequence (P29275 whole entry): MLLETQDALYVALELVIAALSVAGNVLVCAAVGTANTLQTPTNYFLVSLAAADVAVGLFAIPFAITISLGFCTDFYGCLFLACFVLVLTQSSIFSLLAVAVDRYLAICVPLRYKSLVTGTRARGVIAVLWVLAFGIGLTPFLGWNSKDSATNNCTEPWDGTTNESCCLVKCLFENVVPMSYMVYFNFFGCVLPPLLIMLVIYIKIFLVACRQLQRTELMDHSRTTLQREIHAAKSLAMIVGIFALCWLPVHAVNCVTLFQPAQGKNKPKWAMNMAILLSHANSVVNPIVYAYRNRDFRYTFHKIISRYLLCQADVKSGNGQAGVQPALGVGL
# Assay overview: Displacement of [3H]DPCPX from human adenosine A2B receptor expressed in HEK293 cell membranes at 1 uM incubated for 30 mins by scintillation counting method
# Details: Cell membrane, filed as antagonist
Measurement type: inhibition (%)
Answers are plain numbers, in %.

Fill in the blank: the reported inhibition of CC1=C(C(=O)OCc2ccccc2)C(c2cccs2)NC(=O)N1C (racemic) is ____.
50

# return inhibition for each item in the list
1. CC1=C(C(=O)OC(C)C)C(c2ccsc2)NC(=O)N1C (racemic)
2. CC1=C(C(=O)OCc2ccccc2)C(c2ccoc2)NC(=O)N1C (racemic)

[51, 49]
